Collected Kd values appear next to each entry.
target: T1, human c-Met (Sino Biological) (human, UniProt P08581 25-932, limits assumed); test: SPR (Biacore T200), IgG captured on Protein A CM5 chip, c-Met 0.15-2 nM as analyte
T1 construct: Analyte in the Biacore assay; also called antigen (c-Met); printed as "human c-Met antibody (Sino Biological, Beijing, China)"
T1 sequence (P08581 25-932 limits assumed): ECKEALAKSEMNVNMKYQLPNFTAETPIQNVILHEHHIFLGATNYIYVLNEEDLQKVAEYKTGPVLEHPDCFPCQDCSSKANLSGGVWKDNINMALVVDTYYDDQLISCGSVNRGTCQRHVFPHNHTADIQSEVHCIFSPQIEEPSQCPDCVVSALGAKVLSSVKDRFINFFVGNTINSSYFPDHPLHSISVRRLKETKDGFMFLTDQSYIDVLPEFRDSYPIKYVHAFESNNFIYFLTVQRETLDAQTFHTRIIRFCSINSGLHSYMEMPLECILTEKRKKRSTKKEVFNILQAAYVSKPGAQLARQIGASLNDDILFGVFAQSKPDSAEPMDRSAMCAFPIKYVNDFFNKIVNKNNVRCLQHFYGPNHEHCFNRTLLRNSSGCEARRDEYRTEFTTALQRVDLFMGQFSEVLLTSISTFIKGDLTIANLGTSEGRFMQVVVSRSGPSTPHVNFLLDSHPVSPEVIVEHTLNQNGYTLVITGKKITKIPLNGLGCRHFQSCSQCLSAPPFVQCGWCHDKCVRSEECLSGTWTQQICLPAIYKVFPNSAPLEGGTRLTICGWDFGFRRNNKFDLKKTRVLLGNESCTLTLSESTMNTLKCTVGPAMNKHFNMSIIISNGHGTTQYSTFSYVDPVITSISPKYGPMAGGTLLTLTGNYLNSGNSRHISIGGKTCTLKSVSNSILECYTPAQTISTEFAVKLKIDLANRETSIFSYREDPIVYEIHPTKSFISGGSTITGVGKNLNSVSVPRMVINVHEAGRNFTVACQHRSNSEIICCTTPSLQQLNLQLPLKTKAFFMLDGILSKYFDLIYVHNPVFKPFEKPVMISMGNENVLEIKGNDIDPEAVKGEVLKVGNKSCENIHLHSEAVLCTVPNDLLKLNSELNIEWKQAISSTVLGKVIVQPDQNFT
Note: unit nM is implicit; provide only the numeric part.

The examples below pair each entry with its known result.
INSERT INTO results (binder, endpoint, unit_text, reading) VALUES
  ('VH6/Vk0 (antibody, IgG1, V domains shown, Full IgG1/kappa expressed in HEK 293 EBNA cells) VH: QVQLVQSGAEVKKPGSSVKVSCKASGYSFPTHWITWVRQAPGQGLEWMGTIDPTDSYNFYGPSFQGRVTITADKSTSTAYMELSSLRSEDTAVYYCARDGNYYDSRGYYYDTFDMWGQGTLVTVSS VL: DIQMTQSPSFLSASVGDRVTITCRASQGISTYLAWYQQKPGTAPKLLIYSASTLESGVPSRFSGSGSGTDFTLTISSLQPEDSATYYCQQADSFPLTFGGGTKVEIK', 'Kd', 'nM', 0.414),
  ('VH6/Vk4 (antibody, IgG1, V domains shown, Full IgG1/kappa expressed in HEK 293 EBNA cells) VH: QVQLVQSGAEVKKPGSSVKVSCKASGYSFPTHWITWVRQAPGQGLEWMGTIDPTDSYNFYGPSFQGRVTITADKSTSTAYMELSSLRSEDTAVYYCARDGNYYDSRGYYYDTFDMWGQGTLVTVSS VL: EIQMTQSPGTLSLSPGERATLSCRASQGISTYLAWYQQKPGQAPRLLIYSASTLESGVPDRFSGSGSGTDFTLTISRLEPEDFATYYCQQADSFPLTFGGGTKVEIK', 'Kd', 'nM', 0.391);

Challenge: Give the value of Kd reported for the following: VH4/Vk4 (antibody, IgG1, V domains shown, Full IgG1/kappa expressed in HEK 293 EBNA cells) VH: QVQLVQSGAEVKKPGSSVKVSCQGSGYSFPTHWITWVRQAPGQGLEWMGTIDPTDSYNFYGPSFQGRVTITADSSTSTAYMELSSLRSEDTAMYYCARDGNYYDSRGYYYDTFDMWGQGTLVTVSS VL: EIQMTQSPGTLSLSPGERATLSCRASQGISTYLAWYQQKPGQAPRLLIYSASTLESGVPDRFSGSGSGTDFTLTISRLEPEDFATYYCQQADSFPLTFGGGTKVEIK
Response given: 0.372
